Target under test: T1, hGPVI-hFc fusion protein (human)
T1 construct: also called GPVI-Fc; human GPVI-Fc fusion protein
Assay name: DELFIA competition assay: Fab preincubated with GPVI-Fc (3 µg/ml), binding to collagen-coated plate, Test 1
// assign fulfilled if IC50 falls strictly below 0.7 µg/mL, else not fulfilled (ties count as not fulfilled)

{"Binder": "humanized anti-GPVI Fab VL1/VH2 (Fab, V domains shown, Recombinant Fab: VH fused to CH1 of human IGHG1 (Q569F4), HC ends in DKTHT; VL fused to human constant kappa (Q502W4); also called VL1 with VH2) VH: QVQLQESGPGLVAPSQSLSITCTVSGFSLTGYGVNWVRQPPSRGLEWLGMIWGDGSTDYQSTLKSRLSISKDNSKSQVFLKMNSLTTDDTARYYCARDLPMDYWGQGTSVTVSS VL: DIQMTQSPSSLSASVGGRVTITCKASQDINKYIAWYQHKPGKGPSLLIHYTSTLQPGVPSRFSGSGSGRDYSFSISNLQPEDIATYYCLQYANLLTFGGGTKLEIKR", "Qualitative label": "not fulfilled"}
{"Binder": "humanized anti-GPVI Fab VL3/VH2 (Fab, V domains shown, Recombinant Fab: VH fused to CH1 of human IGHG1 (Q569F4), HC ends in DKTHT; VL fused to human constant kappa (Q502W4); also called VL3 with VH2) VH: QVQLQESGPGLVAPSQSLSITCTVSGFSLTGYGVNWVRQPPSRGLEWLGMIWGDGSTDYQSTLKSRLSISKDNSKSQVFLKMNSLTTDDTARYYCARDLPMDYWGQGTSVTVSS VL: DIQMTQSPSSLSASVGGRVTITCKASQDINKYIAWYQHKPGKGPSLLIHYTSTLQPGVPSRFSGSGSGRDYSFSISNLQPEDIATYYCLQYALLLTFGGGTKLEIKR", "Qualitative label": "fulfilled"}
{"Binder": "humanized anti-GPVI Fab VL1/VH4 (Fab, V domains shown, Recombinant Fab: VH fused to CH1 of human IGHG1 (Q569F4), HC ends in DKTHT; VL fused to human constant kappa (Q502W4); also called VL1 with VH4) VH: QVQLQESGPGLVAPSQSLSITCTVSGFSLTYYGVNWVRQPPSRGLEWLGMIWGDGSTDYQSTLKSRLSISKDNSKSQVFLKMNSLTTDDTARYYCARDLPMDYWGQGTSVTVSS VL: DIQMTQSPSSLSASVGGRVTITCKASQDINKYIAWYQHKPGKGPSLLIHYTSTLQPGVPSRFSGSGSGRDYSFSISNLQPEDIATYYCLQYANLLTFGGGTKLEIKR", "Qualitative label": "not fulfilled"}

Now for a further binder.
(Q) Dear reviewer, please state whether humanized anti-GPVI Fab VL1/VH1 (Fab, V domains shown, Recombinant Fab: VH fused to CH1 of human IGHG1 (Q569F4), HC ends in DKTHT; VL fused to human constant kappa (Q502W4); also called VL1 with VH1) VH: QVQLQESGPGLVAPSQSLSITCTVSGFSLTGYGVNWVRQPPSRGLEWLGMIWGDGSTDYQSTLKSRLSISKDTSKSQVFLKMNSLTTDDTARYYCARDLPMDYWGQGTSVTVSS VL: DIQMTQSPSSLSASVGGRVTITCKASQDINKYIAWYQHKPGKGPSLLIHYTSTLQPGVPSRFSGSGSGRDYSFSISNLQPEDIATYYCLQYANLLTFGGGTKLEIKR has IC50 strictly beneath 0.7 µg/mL.
(A) not fulfilled
